Catalogue of MIC readings, one per entry.
System: Staphylococcus aureus X400
Assay: agar-dilution MIC
Assay type: cell-based
Settings: Staphylococcus aureus X400, methicillin-resistant strain
Experimental: The MIC's in Table I were determined by standard agar-dilution assays. The MIC's in Table II were obtained using a conventional broth-dilution microtiter test.
A bare number is not enough; add the unit after it.

{"MOLECULE": "CCCC(=O)OC1C(C)OC(OC2C(C)OC(OC3C(CC=O)CC(C)C(=O)C=CC(C)=CC(COC4OC(C)C(O)C(O)C4OC)C(CC)OC(=O)CC(OC(C)=O)C3C)C(O)C2N(C)C)CC1(C)O (stereo not shown)", "RESULT": "2 µg/mL"}
{"MOLECULE": "CCC1OC(=O)CC(OC(C)=O)C(C)C(OC2OC(C)C(OC3CC(C)(O)C(OC(=O)CC(C)C)C(C)O3)C(N(C)C)C2O)C(CC=O)CC(C)C(=O)C=CC(C)=CC1COC1OC(C)C(O)C(O)C1OC (stereo not shown)", "RESULT": "2 µg/mL"}
{"MOLECULE": "CCC1OC(=O)CC(OC(C)=O)C(C)C(OC2OC(C)C(O)C(N(C)C)C2O)C(CC=O)CC(C)C(=O)C=CC(C)=CC1COC1OC(C)C(O)C(O)C1OC (stereo not shown)", "RESULT": "4 µg/mL"}

Moving on to another molecule below.
Per the record, CCC1OC(=O)CC(OC(C)=O)C(C)C(OC2OC(C)C(OC3CC(C)(O)C(O)C(C)O3)C(N(C)C)C2O)C(CC=O)CC(C)C(=O)C=CC(C)=CC1COC1OC(C)C(O)C(O)C1OC (stereo not shown) has MIC of 2 µg/mL

---

Catalogue of MIC readings, one per entry.
Tested on: Staphylococcus aureus V41
Assay: agar-dilution MIC
Type: cell-based
Settings: Staphylococcus aureus V41, penicillin-resistant strain
Procedure: The MIC's in Table I were determined by standard agar-dilution assays. The MIC's in Table II were obtained using a conventional broth-dilution microtiter test.
Could you give me the number in µg/mL? Just the number is fine.

Solved entries (count: 3):
{"COMPOUND": "CCCC(=O)OC1C(C)OC(OC2C(C)OC(OC3C(CC=O)CC(C)C(=O)C=CC(C)=CC(COC4OC(C)C(O)C(O)C4OC)C(CC)OC(=O)CC(OC(C)=O)C3C)C(O)C2N(C)C)CC1(C)O (stereo not shown)", "MIC, µg/mL": 1}
{"COMPOUND": "CCC1OC(=O)CC(OC(C)=O)C(C)C(OC2OC(C)C(OC3CC(C)(O)C(OC(=O)CC(C)C)C(C)O3)C(N(C)C)C2O)C(CC=O)CC(C)C(=O)C=CC(C)=CC1COC1OC(C)C(O)C(O)C1OC (stereo not shown)", "MIC, µg/mL": 1}
{"COMPOUND": "CCC1OC(=O)CC(OC(C)=O)C(C)C(OC2OC(C)C(O)C(N(C)C)C2O)C(CC=O)CC(C)C(=O)C=CC(C)=CC1COC1OC(C)C(O)C(O)C1OC (stereo not shown)", "MIC, µg/mL": 2}

Moving on to another compound below.
Note to self: MIC of CCC1OC(=O)CC(OC(C)=O)C(C)C(OC2OC(C)C(OC3CC(C)(O)C(O)C(C)O3)C(N(C)C)C2O)C(CC=O)CC(C)C(=O)C=CC(C)=CC1COC1OC(C)C(O)C(O)C1OC (stereo not shown) with Staphylococcus aureus V41 was 1
